assay: Time dependent organ distribution of CPT after intramuscular administration; assay type: in vivo; conditions: mouse, 7 µg/mouse, Liver, 0 min, mice, i.m. CPT in DMSO/saline suspension, read-out: CPT in tissue
Parameter: concentration at 0 min (ng/g)

Compound | Parameter | Value Measured
CC[C@@]1(O)C(=O)OCc2c1cc1n(c2=O)Cc2cc3ccccc3nc2-1 [CPT, 20-S-camptothecin] | concentration at 0 min | 3
